// provenance: ChEMBL document CHEMBL1122438

procedure_details: Therapeutic index was expressed as LD50/ED50 carragreenin model
condition_description: mouse; read-out: TI
Known selectivity ratio of a selection of compounds

Reference set, count: 3
*Q* // returns reported selectivity ratio for input Cn1ccc(=O)n2nc(-c3ccccc3)cc12
*A* 5.13

*Q* // returns reported selectivity ratio for input CCn1ccc(=O)n2nc(-c3ccccc3)cc12
*A* 37.1

*Q* // returns reported selectivity ratio for input CCCCC1C(=O)N(c2ccccc2)N(c2ccccc2)C1=O
*A* 18.2

Then this compound:
*Q* // returns reported selectivity ratio for input COc1ccc2c(c1)c(CC(=O)O)c(C)n2C(=O)c1ccc(Cl)cc1
*A* 10.9
